system: K4 kissing-loop RNA reporter; assay: apparent KD of K4 kissing-loop reporter; higher = weaker reporter binding; conditions: Eterna round: R107; input ligand: arginine 13.2 mM;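 note: bound reporter read as fluorescence of individual clusters on recovered sequencing chips by microscopy, with normalized cluster intensities fitted with a binding model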
measure: apparent KD of K4 kissing-loop reporter

[[record]]
residue_sequence = "ACGUGAAGCGACUCCUAGUUAAACCGGGAAGGAGCGCGGAUAACCGCAGGUAGGUCGCCCGGAAGCCGGACCAGUGAUGUUGGUC [Exclusion Arginine A Gf 26]"
reported_result = "191 nM"

[[record]]
residue_sequence = "GCGCGCGUUUUAGAUACCAGCCAGUGAUGUUGGCGAGGAUUCUGGAGCGUAGUGUCAAAUGGCCCUUGGCAGCUAACACGCGGCU [Zabea]"
reported_result = "108 nM"

[[record]]
residue_sequence = "CAUAGGAAACUAUGUUUCUCUCUUACUGAAGGAGCGCGUGAAAACGCAGGUAGGUCGCAGAUUUUGAGAGUGAUGUUCUCAAUAA [Ex Arginine A K4 18]"
reported_result = "167 nM"

[[record]]
residue_sequence = "AUUUUGAGUGAUGUUCAUAUCUAUUCUGAAGGAGCGCUAAAUAAGGCAGGUAGGUCGCGGAAUAUAUAUAUAUAUAUAUAUAUAU [KL-SSArg-A30]"
reported_result = "809 nM"

[[record]]
residue_sequence = "AAUGCAUAGUGAAGGAGCGCGUAUAGCAGUGAUGUUGCUUACUUAUUAUUAUAUUAAUUGACGCAGGUAGGUCGCACUUUGCAUA [JR_ExcArginiB_Sub022]"
reported_result = "144 nM"

[[record]]
residue_sequence = "CUGGGUUGACGAAAAGUCAACAAAAGAGAAGGAGCGCACGAAAGUGCAGGUAGGUCGCUCAUCCAGUGAUGUUGGAUCAUCCAGA [#SwitchBubble 16 #K4Late]"
reported_result = "611 nM"

[[record]]
residue_sequence = "UAAUAAAUUCCAGCGAUAUCGCUCUUCGAAGGAGCGGACGAAAGUCCAGGUAGGUCGCGAAGAGUGAUGUUCUUUGCGGCGCUGG [Omei KL Arginine A Exc A v4]"
reported_result = "180 nM"

[[record]]
residue_sequence = "UCCUAGGCUCGAAAGAGCCUAGGAUUUACUCAGGAUAUCCGGAAACGGAGAAGGGAGUAACUAGUGAUGUUAGGGAUUCCCUAUU"
reported_result = "113 nM"

[[record]]
residue_sequence = "CGUCACACUUGAUGGUUAUCCAAUGAUGAUACCAGCCGUCGAGAUGGCCCUUGGCAGCAUGUGGUACAGUGAUGUUGUACAUUGG [theeternabot_sameState_KL_Theo_A_30]"
reported_result = "244 nM"

[[record]]
residue_sequence = "UAUAUAUGAUGUGAUACCAGUGAAGAGCCAGUGAUGUUGGUAGAACUGGUAUAUAAAUAACACCCUUGGCAGCACAAUCACGUAU [whbob_Ex_Theo_B_sa97]"
reported_result = "152 nM"

[[record]]
residue_sequence = "GGCCGAAGAGAAGGAUAUGGUUUCACGCGUCGUUAGUGAUGUUAAUGCGCAUGCCUUAGUAUAGAGCCAGAAGGUCUGGUCAGAA [theeternabot_sameState_KL_FMN_B_34]"
reported_result = "199 nM"

[[record]]
residue_sequence = "AAAUUCUUUUUUUUAUAUAACAAUUCAGAAGGAGCGUGGUAGAACACAGGUAGGUCGCUGAAUAUAAGACUAGUGAUGUUAGUAA [JR_SSArginiA_Sub010]"
reported_result = "192 nM"


// data source = the supplement of paper PMC9170038
